# Study target: CDK2 (Homo sapiens)
# Construct: endogenous in cells; host or cells: MKN1 cells
# Assay method text: CDK2 degradation in MKN1 cells (AlphaLISA)
# Type: cell-based
# Measurement parameters: 14 h incubation
Metric: CDK2 degradation 14 h: Average Dmax %

>  <Molecule>
Cc1cc(S(=O)(=O)NC2CCC(N3CCN(CC4CN(c5cccc6c5n(C)c(=O)n6C5CCC(=O)NC5=O)C4)CC3)CC2)ccc1Nc1ncc(C(F)(F)F)c(N2CCCC(C)(O)C2)n1 (stereo not drawn)

>  <Result>
A (A (>75% o))

$$$$
>  <Molecule>
Cc1cc(S(=O)(=O)C2CC3(CCN(CC4CCN(c5ccc6c(c5F)n(C)c(=O)n6C5CCC(=O)NC5=O)CC4)CC3)C2)ccc1Nc1ncc2c(n1)N(C1CCCC1)C(=O)C21CC1 (stereo not drawn)

>  <Result>
A (A (>75% o))

$$$$
>  <Molecule>
CN(CC1CCC(NS(=O)(=O)c2ccc(Nc3ncc(C(F)(F)F)c(N4CCCC(C)(O)C4)n3)c(C(F)F)c2)CC1)C1CN(c2ccc(C3CCC(=O)NC3=O)c(F)c2)C1 (stereo not drawn)

>  <Result>
B (B (>50% -75%))

$$$$
>  <Molecule>
Cc1cc(S(=O)(=O)NC(C)COC2CCC(CN3CCN(c4ccc5c(c4F)n(C)c(=O)n5C4CCC(=O)NC4=O)CC3)CC2)ccc1Nc1ncc(C(F)(F)F)c(N2CCC(C(C)(C)O)C2)n1 (stereo not drawn) [I-857]

>  <Result>
A (A (>75% o))

$$$$
>  <Molecule>
CC1(O)CCN(c2nc(Nc3ccc(S(=O)(=O)NC4CCN(CC5CCN(c6ccc(C7CCC(=O)NC7=O)cc6F)CC5)CC4F)cc3F)ncc2C(F)(F)F)CC1 (stereo not drawn)

>  <Result>
A (A (>75% o))

$$$$

Q: Which CDK2 degradation 14 h: Average Dmax % is listed for CC1CN(CC2CCN(c3ccc(C4CCC(=O)NC4=O)c(F)c3)CC2)CCC1NS(=O)(=O)c1ccc(Nc2ncc(C(F)(F)F)c(N3CCCC(C)(O)C3)n2)c(F)c1 (stereo not drawn) [I-1046] ?
A: A (A (>75% o))

---

# maps each entry to its DC50
# Study target: CDK2 (Homo sapiens, UniProt P24941)
# Construct: endogenous in cells; host or cells: MKN1 cells
# Assay method text: CDK2 degradation in MKN1 cells (AlphaLISA)
# Format: cell-based
# Measurement parameters: 14 h incubation, read-out: CDK2 degradation 14 h: Mean external-Abs DC50

Q: GET /values?readout=DC50&system=CDK2 (Homo sapiens, UniProt P24941)&item= CC1CN(CC2CCN(c3ccc(C4CCC(=O)NC4=O)c(F)c3)CC2)CCC1NS(=O)(=O)c1ccc(Nc2ncc(C(F)(F)F)c(N3CCCC(C)(O)C3)n2)c(F)c1 (centres unmarked) [I-1063]
A: < 100 nM

Q: Hi! What's the reported DC50 for Cc1cc(S(=O)(=O)NC2CCC(OC3CCN(c4ccc(C5CCC(=O)NC5=O)cc4F)CC3)CC2)ccc1Nc1ncc(C(F)(F)F)c(N2CCCC(C)(O)C2)n1 (centres unmarked) on CDK2 (Homo sapiens, UniProt P24941)?
A: < 100 nM

Q: // lookup DC50 | system=CDK2 (Homo sapiens, UniProt P24941) | key= Cc1cc(S(=O)(=O)N2CCC(CN(C)C3CCN(c4cccc5c4n(C)c(=O)n5C4CCC(=O)NC4=O)CC3)CC2)ccc1Nc1ncc2c(n1)N(C1CCCC1)C(=O)C21CC1 (centres unmarked)
A: < 100 nM

Q: # get_value(readout= DC50, system= CDK2 (Homo sapiens, UniProt P24941)) for Cc1cc(S(=O)(=O)N[C@H]2C[C@H](N3CCN(CC4CCN(c5ccc(NC6CCC(=O)NC6=O)cc5C)CC4)CC3)C2)ccc1Nc1ncc2ccc(=O)n(C3CCCC3)c2n1 (some centres unmarked)
A: < 100 nM

Q: Fill in the recorded DC50 for this molecule, with CDK2 (Homo sapiens, UniProt P24941) as test system: Cc1cc(S(=O)(=O)NCCO[C@H]2CC[C@H](CN3CCC(c4ccc5c(c4)n(C)c(=O)n5C4CCC(=O)NC4=O)CC3)CC2)ccc1Nc1ncc2cc(C(F)F)c(=O)n(C3CCCC3)c2n1 (some centres unmarked)
A: < 100 nM
